From: patent EP0747380B1

Tested on: serum cholesterol
Protocol Notes: Serum cholesterol analysis, OVX rat, four day dosing regimen
Type: in vivo, female Sprague Dawley rats
Measurement Conditions: Rattus norvegicus, 96 h; Dose 0.1 mg/kg, oral, daily for 4 days, OVX rats; * = significantly different than OVX control; read-out: Serum Cholesterol (% dec. OVX)
Method: Animals were dosed daily for 4 days. […] A blood sample was collected by cardiac puncture. Blood samples were allowed to clot at room temperature for 2 hours, and serum was obtained following centrifugation for 10 minutes at 3000 rpm. Serum cholesterol was determined using a Boehringer Mannheim Diagnostics high performance cholesterol assay. Briefly the cholesterol was oxidized to cholest-4-en-3-one and hydrogen peroxide. […] Cholesterol concentration was then calculated against a standard curve. […]
Provide the reported inhibition in vivo at 0.1 mg/kg of each item.
Field format: number, assumed %, no unit text.

Short answer for O=C(c1ccc(OCCN2CCCC2=O)cc1)c1c(-c2ccc(O)cc2)sc2cc(O)ccc12 : inhibition in vivo at 0.1 mg/kg was 33.6

Short answer for CC(=O)NCCOc1ccc(C(=O)c2c(-c3ccc(O)cc3)sc3cc(O)ccc23)cc1 : inhibition in vivo at 0.1 mg/kg was 15.8

Short answer for O=C(c1ccc(OCC(=O)N2CCCCC2)cc1)c1c(-c2ccc(O)cc2)sc2cc(O)ccc12 : inhibition in vivo at 0.1 mg/kg was 4.2

Short answer for CN(C)C(=O)COc1ccc(C(=O)c2c(-c3ccc(O)cc3)sc3cc(O)ccc23)cc1 : inhibition in vivo at 0.1 mg/kg was 27.8
